The reported measurements were obtained from ChEMBL document CHEMBL1127415.

test system: Rattus norvegicus; assay: The duration of action for the % peak inhibition of angiotensin II pressor response for dose of 0.1 mg/kg intravenous administration in conscious rats.; assay type: functional
# Duration per record follows
readout_name: Duration

>>> print(df.to_string())
                                   compound  readout_name  result
0  CCc1nc2c(C)cc(C)nc2n1Cc1ccc(-c2ccccc2S(=O)(=O)NC(=O)c2ccccc2)cc1      Duration     6 h
1  CCc1nc2c(C)cc(C)nc2n1Cc1ccc(-c2ccccc2S(=O)(=O)NC(=O)C(C)C)cc1      Duration     5 h
2  CCc1nc2c(C)cc(C)nc2n1Cc1ccc(-c2ccccc2-c2nn[nH]n2)cc1 [L-158809]      Duration    >6 h
3  CCc1nc2c(C)cc(C)nc2n1Cc1ccc(-c2ccccc2S(=O)(=O)NC(=O)C2CC2)cc1      Duration    >6 h
